test target: thromboxane synthetase (Homo sapiens, UniProt P24557)
Construct: endogenous in cells; host or cells: human platelets (platelet-rich plasma passed through Sepharose 2B)
Sequence (P24557 1-533): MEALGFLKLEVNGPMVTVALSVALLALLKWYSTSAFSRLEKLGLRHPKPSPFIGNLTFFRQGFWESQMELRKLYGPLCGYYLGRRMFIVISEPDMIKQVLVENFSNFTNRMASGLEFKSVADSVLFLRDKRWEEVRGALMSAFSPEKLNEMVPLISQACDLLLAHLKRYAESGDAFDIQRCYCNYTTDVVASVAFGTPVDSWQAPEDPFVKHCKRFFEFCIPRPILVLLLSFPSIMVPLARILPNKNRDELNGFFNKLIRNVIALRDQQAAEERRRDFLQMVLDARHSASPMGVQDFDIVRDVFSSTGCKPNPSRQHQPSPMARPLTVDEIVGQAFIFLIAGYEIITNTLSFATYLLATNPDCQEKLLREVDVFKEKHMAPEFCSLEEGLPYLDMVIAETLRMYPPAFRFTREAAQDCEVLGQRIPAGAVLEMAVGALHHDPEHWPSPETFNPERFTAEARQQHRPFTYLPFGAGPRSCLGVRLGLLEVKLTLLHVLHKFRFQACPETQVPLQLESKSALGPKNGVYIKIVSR
experiment description: Inhibitory effect on thromboxane synthetase (TXB2 formation in human platelet suspension)
Format: cell-based
condition details: 10 minutes at ambient temperature, then 14C-labelled arachidonic acid 10 minutes, read-out: Inhibition of thromboxane synthetase IC50
Experimental: Determining the Inhibitory Effect on Thromboxane Synthetase Venous human blood is anti-coagulated with 13 mM Na3 citrate and centrifuged for 10 minutes at 170×g. The supernatant platelet-rich plasma is passed through a Sepharose 2B column in order to remove the plasma proteins. […] After cutting out, the activity is measured in a scintillation counter and the inhibition of the formation of TXB2 is calculated. The IC50 is determined by linear interpolation.
pIC50: −log10 of the molar value.
pIC50 vs 8: at or above is 1.0, below is 0.0.

Consider the following illustrative entries.
compound | test target | group
N#CC(C#N)=C(Nc1cccc(/C(=C\CCCC(=O)O)c2cccnc2)c1)NC1CC1 [O] | thromboxane synthetase (Homo sapiens, UniProt P24557) | 0.0
CC(C)NC(Nc1cccc(/C(=C\CCCC(=O)O)c2cccnc2)c1)=C(C#N)C#N [K] | thromboxane synthetase (Homo sapiens, UniProt P24557) | 0.0
N#CN=C(Nc1cccc(/C(=C\CCCn2cnnn2)c2cccnc2)c1)NC1CCCC1 [Y] | thromboxane synthetase (Homo sapiens, UniProt P24557) | 0.0
CC(C)(C)NC(Nc1cccc(/C(=C\CCCC(=O)O)c2cccnc2)c1)=C(C#N)C#N [Q] | thromboxane synthetase (Homo sapiens, UniProt P24557) | 0.0
CC(C)CNC(=NC#N)Nc1cccc(/C(=C\CCCC(=O)O)c2cccnc2)c1 [F] | thromboxane synthetase (Homo sapiens, UniProt P24557) | 0.0
CC(C)CNC(=NS(N)(=O)=O)Nc1cccc(/C(=C\CCCC(=O)O)c2cccnc2)c1 [W] | thromboxane synthetase (Homo sapiens, UniProt P24557) | 0.0
CC(C)(C)NC(=NC#N)Nc1cccc(C(CCCCC(=O)O)c2cccnc2)c1 (stereo not drawn) [S] | thromboxane synthetase (Homo sapiens, UniProt P24557) | 0.0
CC(C)(C)NC(=NS(=O)(=O)c1ccccc1)Nc1cccc(/C(=C\CCCC(=O)O)c2cccnc2)c1 [Example V] | thromboxane synthetase (Homo sapiens, UniProt P24557) | 1.0

# evaluate next
**Q:** Is pIC50 for CCCCCNC(=NC#N)Nc1cccc(/C(=C\CCCC(=O)O)c2cccnc2)c1 [H] at or above 8?
**A:** 1.0

Each recorded value in this set is attributed to patent US5482948A.
